test.method.notes: In vitro cytotoxicity assay
Type: cell-based
conditions: human, THP1 human monocytic leukaemia cells
observable: CC50

INSERT INTO measurements (structure_smiles_string, assay_value) VALUES
  ('Cc1[nH]c2nc(N)nc(C)c2c1-c1ccc(C#N)c2c1OCO2', '> 50 µM');

----------
test.method.notes: in vivo
conditions: both, Wistar Han, rat, po
observable: NOAEL at 14 days

INSERT INTO results (structure_smiles_string, assay_value) VALUES
  ('Cc1[nH]c2nc(N)nc(C)c2c1-c1ccc(C#N)c2c1OCO2', '80 mg/kg');

----------
test.method.notes: In vitro cytotoxicity assays, all cell lines tested
Type: cell-based
conditions: mouse, human, African green monkey
observable: CC50

INSERT INTO results (structure_smiles_string, observable, assay_value) VALUES
  ('Cc1[nH]c2nc(N)nc(C)c2c1-c1ccc(C#N)c2c1OCO2', 'CC50', '> 37 µM');
